- System: human tear lipocalin (TL) (Homo sapiens, UniProt P31025, T55W/W35Y)
- Sequence (P31025 19-176 W35Y/T55W): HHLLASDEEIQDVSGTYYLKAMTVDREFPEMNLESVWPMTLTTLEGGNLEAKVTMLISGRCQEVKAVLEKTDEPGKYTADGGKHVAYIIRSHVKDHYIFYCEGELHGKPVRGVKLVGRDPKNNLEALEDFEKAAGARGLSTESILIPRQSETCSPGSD
- Protocol: Trp fluorescence titration, one-site fit
Value Kind: pKd
The scale used: pKd is minus the common logarithm of the concentration in molar units.

Measured pKd, `CCCCCCCCCCCCCCCC(=O)O` : 5.24

---

- System: human tear lipocalin (TL) (Homo sapiens, UniProt P31025, I75W/W35Y)
- Sequence (P31025 19-176 W35Y/I75W): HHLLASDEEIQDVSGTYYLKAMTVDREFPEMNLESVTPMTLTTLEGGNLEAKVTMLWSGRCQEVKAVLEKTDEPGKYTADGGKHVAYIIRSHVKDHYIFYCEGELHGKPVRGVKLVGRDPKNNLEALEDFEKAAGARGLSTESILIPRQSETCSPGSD
- Protocol: Trp fluorescence titration, one-site fit
Value Kind: pKd
The scale used: pKd is minus the common logarithm of the concentration in molar units.

Measured pKd, `CCCCCCCCCCCCCCCC(=O)O` : 6.30

---

- System: human tear lipocalin (TL) (Homo sapiens, UniProt P31025, M40W/W35Y)
- Sequence (P31025 19-176 W35Y/M40W): as the sequence (P31025 19-176 W35Y/T55W) above, with M22W, W37T counted along it
- Protocol: Trp fluorescence titration, one-site fit
Value Kind: Kd (nM)
Write the answer as a number in nM, unit excluded.

Measured Kd, `CCCCCCCCCCCCCCCC(=O)O` : 900
